- protocol summary: physchem
- condition label: 37.2 °C, pH 6.8, aqueous buffer, thermodynamic from solid
assay readout: solubility at 4 h (µg/mL)
One number for each entry, in µg/mL.

Per the record, CC(O)c1cc(C(=O)N[C@@H](C)Cn2ccc(-c3ccc(C#N)c(Cl)c3)n2)n[nH]1 (stereo partly shown) [Darolutamide] has solubility at 4 h of 24.9
